Biological target: T1, human LAG-3 on cells (HEK293-hLAG-3 stable cell line) (human, UniProt P18627 23-525)
T1 sequence: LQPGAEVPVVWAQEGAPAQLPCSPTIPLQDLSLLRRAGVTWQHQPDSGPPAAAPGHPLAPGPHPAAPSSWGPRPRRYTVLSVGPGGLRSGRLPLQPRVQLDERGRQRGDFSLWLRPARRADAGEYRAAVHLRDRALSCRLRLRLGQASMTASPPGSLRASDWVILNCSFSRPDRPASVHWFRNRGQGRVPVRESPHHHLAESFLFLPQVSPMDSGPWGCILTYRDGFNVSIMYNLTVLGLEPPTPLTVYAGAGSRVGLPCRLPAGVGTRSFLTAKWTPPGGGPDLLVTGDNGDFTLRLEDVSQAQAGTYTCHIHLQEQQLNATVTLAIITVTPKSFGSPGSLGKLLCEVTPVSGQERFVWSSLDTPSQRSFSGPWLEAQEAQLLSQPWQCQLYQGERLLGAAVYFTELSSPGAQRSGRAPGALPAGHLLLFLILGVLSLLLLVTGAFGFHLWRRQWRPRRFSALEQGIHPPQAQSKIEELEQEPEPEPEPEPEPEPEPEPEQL
Test: cell-based or functional assay
A collection of binders and their measured IL-2 production, antigen-specific T lymphocyte stimulation test, 2 ug/ml, N = 2
Give a bare numeral; the unit pg/mL is implied.

Here are 3 binders together with their reported answers.
- BINDER: "556F6B8 mouse-human chimeric antibody (antibody, V domains shown, also called mAb123-556F6B8; 556F8B8) VH: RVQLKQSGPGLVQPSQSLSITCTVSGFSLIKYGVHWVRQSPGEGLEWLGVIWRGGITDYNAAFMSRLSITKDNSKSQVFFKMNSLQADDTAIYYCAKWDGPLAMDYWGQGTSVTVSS VL: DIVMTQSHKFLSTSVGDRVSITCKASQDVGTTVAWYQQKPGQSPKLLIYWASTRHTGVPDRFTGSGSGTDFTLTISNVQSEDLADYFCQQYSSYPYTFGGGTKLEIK"
  MEAS_VALUE: 866
- BINDER: "409D4E10 mouse-human chimeric antibody (antibody, V domains shown, also called mAb112-409D4E10) VH: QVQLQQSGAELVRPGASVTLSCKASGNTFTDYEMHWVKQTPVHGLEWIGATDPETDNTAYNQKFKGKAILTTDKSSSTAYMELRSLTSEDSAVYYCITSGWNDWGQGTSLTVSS VL: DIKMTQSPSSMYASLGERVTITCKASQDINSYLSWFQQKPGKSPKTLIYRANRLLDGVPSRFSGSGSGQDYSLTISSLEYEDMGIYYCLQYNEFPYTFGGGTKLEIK"
  MEAS_VALUE: 673
- BINDER: "405B8H3 mouse-human chimeric antibody (antibody, V domains shown, also called mAb103-405B8H3) VH: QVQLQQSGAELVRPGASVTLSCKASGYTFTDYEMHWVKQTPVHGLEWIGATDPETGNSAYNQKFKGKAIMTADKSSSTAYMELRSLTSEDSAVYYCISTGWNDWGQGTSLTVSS VL: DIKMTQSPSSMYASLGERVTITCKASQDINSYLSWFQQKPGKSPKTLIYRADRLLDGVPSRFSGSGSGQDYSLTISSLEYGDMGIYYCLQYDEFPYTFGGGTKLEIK"
  MEAS_VALUE: 825

Query: Give recorded IL-2 production, antigen-specific T lymphocyte stimulation test, 2 ug/ml, N = 2. 409B11E12 mouse-human chimeric antibody (antibody, V domains shown, also called mAb104-409B11E12) VH: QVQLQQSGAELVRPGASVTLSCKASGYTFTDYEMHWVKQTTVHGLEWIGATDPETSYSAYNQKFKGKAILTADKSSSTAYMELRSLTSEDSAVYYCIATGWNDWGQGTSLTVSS VL: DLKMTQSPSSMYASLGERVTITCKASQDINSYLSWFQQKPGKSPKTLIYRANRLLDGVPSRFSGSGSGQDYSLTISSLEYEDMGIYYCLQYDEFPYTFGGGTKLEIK
Reply: 915
